Listed below: MIC values for each entry.
system: Staphylococcus aureus; assay: Antibacterial activity against Staphylococcus aureus ATCC 25923 assessed as growth inhibition after 24 hr by broth dilution method; assay type: functional; details: ATCC 25923, 24 h

{"smilesCode": "O=C(/C=C/c1ccc(Cl)cc1)c1cc(C(=O)/C=C/c2ccc(Cl)cc2)c(O)cc1O", "relationalOperator": "=", "MIC / µg/mL": 50}
{"smilesCode": "O=C(/C=C/c1ccco1)c1cc(C(=O)/C=C/c2ccco2)c(O)cc1O", "relationalOperator": "=", "MIC / µg/mL": 25}
{"smilesCode": "COc1cc(-c2cc(=O)c3cc4c(=O)cc(-c5cc(OC)c(OC)c(OC)c5)oc4cc3o2)cc(OC)c1OC", "relationalOperator": ">", "MIC / µg/mL": 100}
{"smilesCode": "CC(=O)c1cc(C(C)=O)c(OC(=O)c2ccc(Cl)cc2)cc1OC(=O)c1ccc(Cl)cc1", "relationalOperator": ">", "MIC / µg/mL": 100}
{"smilesCode": "O=c1cc(-c2ccco2)oc2cc3oc(-c4ccco4)cc(=O)c3cc12", "relationalOperator": "=", "MIC / µg/mL": 25}
{"smilesCode": "COc1ccc(/C=C/C(=O)c2cc(C(=O)/C=C/c3ccc(OC)c(OC)c3)c(OC)cc2OC)cc1OC", "relationalOperator": ">", "MIC / µg/mL": 100}
{"smilesCode": "COc1cc(/C=C/C(=O)c2cc(C(=O)/C=C/c3cc(OC)c(OC)c(OC)c3)c(O)cc2O)cc(OC)c1OC", "relationalOperator": "=", "MIC / µg/mL": 50}
{"smilesCode": "CC(=O)c1cc(C(C)=O)c(OC(=O)c2cccc([N+](=O)[O-])c2)cc1OC(=O)c1cccc([N+](=O)[O-])c1", "relationalOperator": ">", "MIC / µg/mL": 100}
{"smilesCode": "O=c1cc(-c2cccc(Cl)c2)oc2cc3oc(-c4cccc(Cl)c4)cc(=O)c3cc12", "relationalOperator": "=", "MIC / µg/mL": 25}
{"smilesCode": "O=c1c(O)c(-c2ccc(O)c(O)c2)oc2cc(O)cc(O)c12", "relationalOperator": ">", "MIC / µg/mL": 100}
{"smilesCode": "COc1cccc(/C=C/C(=O)c2cc(C(=O)/C=C/c3cccc(OC)c3)c(O)cc2O)c1", "relationalOperator": "=", "MIC / µg/mL": 50}
{"smilesCode": "O=c1cc(-c2ccc(Cl)cc2)oc2cc3oc(-c4ccc(Cl)cc4)cc(=O)c3cc12", "relationalOperator": "=", "MIC / µg/mL": 12.5}
{"smilesCode": "Cc1ccccc1/C=C/C(=O)c1cc(C(=O)/C=C/c2ccccc2C)c(O)cc1O", "relationalOperator": ">", "MIC / µg/mL": 100}
